biological target: human β3 adrenergic receptor (Homo sapiens); construct: expressed in transfected cells; host or cells: DXB-11 Chinese hamster ovary (CHO) cell line, stably transfected (phd expression vector); assay: whole cell receptor coupled c-AMP assay, human β3 receptor in CHO cells (EC50, Emax relative to isoproterenol); assay type: cell-based; conditions: Emax ± standard error of the mean; average of at least 3 runs except where n = 1; compound tested in the isolated form listed
recorded-endpoint: Emax (%) ± SEM

Here is how some compounds turned out for Emax (%) ± SEM.
1) CC(C)(Cc1ccc(Oc2ccc(S(C)(=O)=O)cc2Cl)cc1)NC[C@H](O)COc1ccccc1-c1ccno1.O=C(O)C(F)(F)F; 53.7
2) CC(C)(Cc1ccc(Oc2ncccc2C#N)cc1)NC[C@H](O)COc1ccccc1-c1ccncn1; 41.8
3) CC(C)(Cc1ccc(Oc2ccc(S(N)(=O)=O)cc2F)cc1)NC[C@H](O)COc1ccccc1-c1nccs1.O=C(O)C(F)(F)F; 37.8

a = CC(C)(Cc1ccc(Oc2ncccc2C(N)=O)cc1)NC[C@H](O)COc1ccccc1-c1ccnc(N)n1
b = CC(C)(Cc1ccc(Oc2ccc(S(C)(=O)=O)cc2F)cc1)NC[C@H](O)COc1ccccc1-c1cccs1.O=C(O)C(F)(F)F
Prompt: Rank a against b by their Emax (%) ± SEM values and give the higher one. Output the label that corresponds to your choice.
Response: b
(b: 63.7%, a: 31.5%)

----------
molecular target: human β3 adrenergic receptor (Homo sapiens, UniProt P13945); construct: expressed in transfected cells; host or cells: DXB-11 Chinese hamster ovary (CHO) cell line, stably transfected (phd expression vector); assay: whole cell receptor coupled c-AMP assay, human β3 receptor in CHO cells (EC50, Emax relative to isoproterenol); type: cell-based; conditions: Emax ± standard error of the mean; average of at least 3 runs except where n = 1; compound tested in the isolated form listed
Sequence (P13945 whole entry): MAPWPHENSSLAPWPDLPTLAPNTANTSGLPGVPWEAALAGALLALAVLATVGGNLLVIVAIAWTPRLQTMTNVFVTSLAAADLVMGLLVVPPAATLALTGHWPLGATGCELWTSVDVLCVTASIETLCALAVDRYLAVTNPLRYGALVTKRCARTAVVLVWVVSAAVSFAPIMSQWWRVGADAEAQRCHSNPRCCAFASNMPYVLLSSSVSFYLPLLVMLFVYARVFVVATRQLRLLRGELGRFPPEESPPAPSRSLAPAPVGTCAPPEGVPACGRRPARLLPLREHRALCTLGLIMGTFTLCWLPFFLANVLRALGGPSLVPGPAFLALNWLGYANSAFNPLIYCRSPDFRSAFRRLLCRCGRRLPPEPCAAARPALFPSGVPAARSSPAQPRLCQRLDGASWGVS
recorded-endpoint: Emax (%) ± SEM

Here is how some molecules turned out for Emax (%) ± SEM.
1. CC(C)(Cc1ccc(Oc2ccncc2)cc1)NC[C@H](O)COc1ccccc1-c1cccs1.O=C(O)C(F)(F)F; 59.1
2. CC(C)(Cc1ccc(Oc2ccc(C#N)cn2)cc1)NC[C@H](O)COc1ccccc1-c1ccno1; 48.8
3. CC(C)(Cc1ccc(Oc2ccc(C#N)cc2Cl)cc1)NC[C@H](O)COc1ccccc1-c1ccno1.O=C(O)C(F)(F)F; 44.6
4. CC(C)(Cc1ccc(Oc2ncc(C(F)(F)F)cc2Cl)cc1)NC[C@H](O)COc1ccccc1-c1cscn1.Cl; 50.5

A = CCOC(=O)c1ccc(Oc2ccc(CC(C)(C)NC[C@H](O)COc3ccccc3-c3ccno3)cc2)c(F)c1.O=C(O)C(F)(F)F
B = CC(C)(Cc1ccc(Oc2ccc(C#N)cn2)cc1)NC[C@H](O)COc1ccccc1-c1ccon1.Cl
Prompt: // select label with min value of measured Emax (%) ± SEM from [ A , B ] Output the label that corresponds to your choice.
Response: A
(A: 41.1%, B: 64.8%)

----------
biological target: human β3 adrenergic receptor (Homo sapiens, UniProt P13945); construct: expressed in transfected cells; host or cells: DXB-11 Chinese hamster ovary (CHO) cell line, stably transfected (phd expression vector); assay: whole cell receptor coupled c-AMP assay, human β3 receptor in CHO cells (EC50, Emax relative to isoproterenol); format: cell-based; conditions: Emax ± standard error of the mean; average of at least 3 runs except where n = 1; compound tested in the isolated form listed
recorded-endpoint: Emax (%) ± SEM

A = Cn1ccc(-c2ccccc2OC[C@@H](O)CNC(C)(C)Cc2ccc(Oc3ncccc3C(N)=O)cc2)n1
B = CC(C)(Cc1ccc(Oc2ccc(S(C)(=O)=O)cc2)cc1)NC[C@H](O)COc1ccccc1-c1nccs1.O=C(O)C(F)(F)F
Prompt: // select label with min value of measured Emax (%) ± SEM from [ A , B ] Output the label that corresponds to your choice.
Response: B
(B: 43.5%, A: 70.9%)

Reference source: patent US6730792B2
